- PROTOCOL_TEXT: Metabolic stability in Wistar rat plasma assessed as intact tracer at 74 MBq, iv measured at 30 mins post administration by gamma counting
- Assay type: ADME, organism-based
- RECORDED_CONDITIONS: read-out: Stability
QUANTITY: remaining at 0.5 h (%)

a = [11CH3]Oc1cc(F)cc(F)c1C1CCN(c2ccn3c(CC4CC4)nnc3c2Cl)CC1
b = [11CH3]Oc1c(F)ccc(F)c1C1CCN(c2ccn3c(CC4CC4)nnc3c2Cl)CC1
Exam item: Thinking about recorded remaining at 0.5 h values, which is higher, a or b ? I would appreciate it if you answered with the label of your choice.
Marked response: b
(b: 69.7%, a: 30.8%)

---

- MEASUREMENT_TARGET: Metabotropic glutamate receptor 2 (Homo sapiens)
- Sequence (Q14416 19-872 limits assumed): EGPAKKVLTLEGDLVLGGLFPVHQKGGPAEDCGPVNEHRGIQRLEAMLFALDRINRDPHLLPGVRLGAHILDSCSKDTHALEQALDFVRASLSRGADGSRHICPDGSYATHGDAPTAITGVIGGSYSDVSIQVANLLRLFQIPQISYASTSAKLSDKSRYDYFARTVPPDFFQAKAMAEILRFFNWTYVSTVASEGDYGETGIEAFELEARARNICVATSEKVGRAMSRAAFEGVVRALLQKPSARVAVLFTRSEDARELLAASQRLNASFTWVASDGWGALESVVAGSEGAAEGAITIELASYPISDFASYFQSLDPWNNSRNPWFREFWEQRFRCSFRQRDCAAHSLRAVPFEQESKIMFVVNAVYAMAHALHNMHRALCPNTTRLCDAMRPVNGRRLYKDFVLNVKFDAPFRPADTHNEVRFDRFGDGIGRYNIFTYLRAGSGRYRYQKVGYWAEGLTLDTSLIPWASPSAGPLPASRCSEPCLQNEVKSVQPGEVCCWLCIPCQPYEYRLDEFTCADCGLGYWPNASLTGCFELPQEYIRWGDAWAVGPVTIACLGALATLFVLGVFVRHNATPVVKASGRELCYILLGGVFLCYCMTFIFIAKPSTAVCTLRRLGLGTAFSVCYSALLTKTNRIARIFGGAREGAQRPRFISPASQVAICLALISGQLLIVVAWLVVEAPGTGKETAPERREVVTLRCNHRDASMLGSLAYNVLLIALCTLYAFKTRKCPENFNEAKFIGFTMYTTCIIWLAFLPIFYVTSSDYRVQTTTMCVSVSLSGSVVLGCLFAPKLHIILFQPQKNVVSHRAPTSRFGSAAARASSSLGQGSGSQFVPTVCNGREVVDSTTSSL
- PROTOCOL_TEXT: Agonist activity at human mGLuR2 expressed in CHO cell membrane assessed as […] after 30 mins by scintillation counting relative to control
- Type: functional, cell membranes
QUANTITY: Emax (%)

Before answering, review these 5 worked examples.
Exam item: Dear colleague, please send me the reported Emax for COc1c(F)cccc1C1CCN(c2ccn3c(CC4CC4)nnc3c2Cl)CC1 when you can.
Marked response: 336

Exam item: Please list Emax recorded for the compound COc1ccc(F)c(F)c1C1CCN(c2ccn3c(CC4CC4)nnc3c2Cl)CC1
Marked response: 258

Exam item: Assign Emax to the following record: COc1c(F)ccc(F)c1C1CCN(c2ccn3c(CC4CC4)nnc3c2C(F)(F)F)CC1
Marked response: 421

Exam item: Provide one value: measured Emax of COc1cc(F)cc(F)c1C1CCN(c2ccn3c(CC4CC4)nnc3c2Cl)CC1
Marked response: 256

Exam item: For COc1c(C2CCN(c3ccn4c(CC5CC5)nnc4c3Cl)CC2)ccc(F)c1F , write its Emax.
Marked response: 342

A = COc1ccc(F)cc1C1CCN(c2ccn3c(CC(F)(F)F)nnc3c2Cl)CC1
B = COc1c(F)cccc1C1CCN(c2ccn3c(CC4CC4)nnc3c2C(F)(F)F)CC1
Exam item: Lower value for measured Emax? Options: A , B Answer with the label corresponding to your selection.
Marked response: A
(A: 340%, B: 528%)

---

- Tested on: Cortex
- PROTOCOL_TEXT: Ratio of SUV in cortex in iv dosed Wistar at 2 mins post administration by gamma counting to SUV in cortex in iv dosed Wistar at 30 mins post administration by gamma counting
- Assay type: ADME, organism-based
- RECORDED_CONDITIONS: rat, in vivo
QUANTITY: Ratio

Consider the worked cases shown below.
Exam item: Please report the measured Ratio for [11CH3]Oc1ccc(F)cc1C1CCN(c2ccn3c(CC4CC4)nnc3c2Cl)CC1
Marked response: 0.88

Exam item: Dear colleague, please send me the reported Ratio for [11CH3]Oc1ccc(F)c(F)c1C1CCN(c2ccn3c(CC4CC4)nnc3c2Cl)CC1 when you can.
Marked response: 0.84

Exam item: Name the recorded Ratio of the item [11CH3]Oc1c(F)ccc(F)c1C1CCN(c2ccn3c(CC4CC4)nnc3c2Cl)CC1 in your answer.
Marked response: 0.82

a = [11CH3]Oc1cccc(F)c1C1CCN(c2ccn3c(CC4CC4)nnc3c2Cl)CC1
b = [11CH3]Oc1c(F)ccc(F)c1C1CCN(c2ccn3c(CC4CC4)nnc3c2C(F)(F)F)CC1
Exam item: Endpoint returns whichever of a and b has the numerically higher Ratio. Write down the label attached to your selection.
Marked response: b
(b: 1.04, a: 0.71)
